Source: patent US20250002435A1

- TARGET_OF_ASSAY: hCB2R (Homo sapiens (Human), UniProt P34972)
- Sequence (P34972 whole entry): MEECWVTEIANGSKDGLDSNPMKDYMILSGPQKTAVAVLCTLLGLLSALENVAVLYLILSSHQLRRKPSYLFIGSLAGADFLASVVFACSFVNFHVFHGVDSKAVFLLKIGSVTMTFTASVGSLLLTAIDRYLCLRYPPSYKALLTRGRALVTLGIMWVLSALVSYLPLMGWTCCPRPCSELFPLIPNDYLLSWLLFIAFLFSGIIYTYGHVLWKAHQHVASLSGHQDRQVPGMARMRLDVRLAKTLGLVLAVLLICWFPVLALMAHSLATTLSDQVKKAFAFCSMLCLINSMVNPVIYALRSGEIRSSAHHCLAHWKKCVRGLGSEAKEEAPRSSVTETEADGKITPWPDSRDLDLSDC
- TEST_DESCRIPTION: [35S]GTPγS binding assay, hCB2R CHO cell membranes
- REPORTED_CONDITIONS: [35S]GTPγS binding to hCB2R; two independent experiments in triplicate
- Protocol: Functional Characterization. The method used for measuring agonist-stimulated binding of [^35S]GTPγS was based on a described protocol. The assays were carried out with GTPγS assay buffer (50 mM Tris HCl (pH 7.4), 0.2 mM EGTA, 9 mM MgCl2, 150 mM NaCl, 1 mg/ml BSA). Briefly, membranes (5 μg protein) were incubated in assay buffer containing 100 μM GDP, 0.05 nM [^35S]GTPγS, test compounds at various concentrations in siliconized glass tubes. […] Nonspecific binding was determined using 10 μM GTPS. […]
PROPERTY_NAME: pEC50
Answers are plain numbers, as −log10 of the molar value.

Study these solved cases before continuing.
CCCCCCC(C)(C)c1cc(OC)c([C@@]2(O)C3(C)CCC(C3)C2(C)C)c(OC)c1 (stereo partly drawn)	6.92
CCCCCc1cc(OC)c(C2(O)C3(C)CCC(C3)C2(C)C)c(OC)c1 (single isomer, unassigned) [Compound 1a]	5.80
CCCCCCC(C)(C)c1cc(OC)c(C2(O)C3(C)CCC(C3)C2(C)C)c(OC)c1F (single isomer, unassigned)	6.98
CCCCCc1cc(OC)c(C2(O)C3(C)CCC(C3)C2(C)C)c(OC)c1 (single isomer, unassigned) [Compound 1b]	7.94
CCCCCc1cc(OC)c(C2(O)C3(C)CCC(C3)C2(C)C)c(OC)c1F (single isomer, unassigned)	6.52

Okay, next one:
Query string: Item under review: CCCCCCC(C)(C)c1cc(O)c(C2(O)C3(C)CCC(C3)C2(C)C)c(OC)c1 (stereo not drawn) . Reported pEC50?
Result string: 7.83
